Please provide measured composite z-score for the entries that follow.
tested on: Inhibin beta A chain (activin A); test: INHBA (activin A) binders on microarrays, primary screen, biochemical, small-molecule microarray, 635 nm fluorescence scan (AID 1107); conditions: small-molecule microarray binding, higher = more signal;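 also: mouse activin A protein probed at 4.33 µg/mL on printed slides; score merges bound-protein fluorescence near 667 nm with spot signal-to-noise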
Numbers only.

Answered cases to consult:
| MOLECULE | composite z-score |
| --- | --- |
| CCCCCCc1nc(-c2cc(C)c(OC)c(C)c2)cc2c1[Si](C(C)C)(C(C)C)OC2 | 0.641 |
| O=C1C[C@@](C(=O)NC2CC2)(c2ccc([N+](=O)[O-])cc2)[C@@H](c2ccc(CO)cc2I)N1C1CCCCC1 | 0.245 |
| [N-]=[N+]=NCc1ccccc1C[C@]1(C(N)=O)COC(c2ccc(OCCCO)cc2)=N1 | 0.636 |
| COCCCNC(=O)[C@@H]1c2ccccc2C(=O)N(Cc2ccccc2Cl)[C@H]1c1ccc(CO)cc1 | 0.975 |
| C=CC[C@@]1(C(=O)NCCN2CCOCC2)N=C(c2ccc(OCCCO)cc2)O[C@@H]1c1ccccc1N=[N+]=[N-] | 1.72 |
| C=CCC(OC(C)=O)[C@@H]1[C@@H](N(Cc2ccc(-c3ccccc3)cc2)C(=O)Cc2ccc(OC)cc2)c2cc(OCCCO)ccc2N1C(=O)Cc1ccc2ccccc2c1 (stereo partly drawn) | 1.06 |
| O=C(CS)NCCCCCCNC(=O)[C@@H]1C[C@@H]2C(=O)NCC(=O)N2[C@@H]1c1cccc(OCCO)c1 | -0.755 |

Field: composite z-score (Inhibin beta A chain (activin A)). Entry: CC(C)=CCN[C@H](CO)c1ccccc1
1.01
